Substrate: O=[N+]([O-])c1ccc(Cl)c2nonc12
Measurement notes: purified protein
Assay type: biochemical, Oryza sativa
Experimental context: 1.0 mM GSH fixed, NBD-Cl 0.1-1.0 mM, 25 °C, apparent Km, Km above tested range
Quantity name: Km (mM)
# number only, unit mM dropped from output

input: Which Km value is on record for OsGSTU17 (Oryza sativa Japonica Group; F162A) (protein, about 25 kDa subunit; dimeric enzyme; mutants L112A and W165A expressed at 20 °C) MAADKGVKVFGMWASPMAIRVEWALRLKGVDYEYVDEDLANKSEALLRHNPVTKKVPVLVHDGKPLAESTVIVEYIDEAWKHGYPIMPSDPFDRAQARFWARFAEEKCNAALYPIFMTTGEEQRKLVHEAQQCLKTLETALEGKKFFGGDAFGYLDIVTGWAAYWLPVIEEACGVEVVTDEALPLMKAWFDRVLAVDAVKAVLPPRDKLVALNKARREQILSA ?
output: 3.866
